Where these numbers come from: ChEMBL document CHEMBL3871280

# Test system: Listeria monocytogenes
# experiment: Antibacterial activity against Listeria monocytogenes ATCC 19115
# Assay type: functional
measurementKind: MIC

Qu. Requested field: MIC. Item: "Cl.N=C(N)N/N=C/c1ccc(-c2ccc(/C=N/Nc3ccc(F)cc3F)cc2)cc1"
Ans. 2 to 3.9 µM

Qu. Requested field: MIC. Item: "C/C(=N\NC(=N)N)c1ccc(-c2ccc(/C(C)=N/NC(=N)N)cc2)cc1.Cl.Cl"
Ans. > 500 µM

Others:
Qu. Requested field: MIC. Item: "C/C(=N\NC(=N)N)c1ccc2c(c1)Cc1cc(/C(C)=N/NC(=N)N)ccc1-2.Cl.Cl"
Ans. < 0.5 µM

Qu. Requested field: MIC. Item: "C/C(=N\NC(=N)N)c1ccc(-c2ccc(/C(C)=N/Nc3ccccc3Cl)cc2)cc1"
Ans. 62.5 to 125 µM

====

# Test system: Bacillus subtilis
# experiment: Antibacterial activity against Bacillus subtilis 168
# Assay type: functional
# conditionParameters: subsp. subtilis str. 168
measurementKind: MIC

Observe how each entry below is paired with its result.
Qu. Requested field: MIC. Item: "N=C(N)N/N=C/c1ccc(-c2ccc(/C=N/Nc3ccc(Cl)cc3Cl)cc2)cc1"
Ans. > 500 µM

Qu. Requested field: MIC. Item: "Cl.Cl.N=C(N)N/N=C/c1ccc(-c2cccc(/C=N/NC(=N)N)c2)cc1"
Ans. > 500 µM

Qu. Requested field: MIC. Item: "C/C(=N\NC(=N)N)c1ccc(-c2ccc(/C(C)=N/NC(=N)N)cc2)cc1.Cl.Cl"
Ans. > 500 µM

Qu. Requested field: MIC. Item: "Cl.Cl.N=C(N)N/N=C/c1ccc(-c2ccc(/C=N/NC(=N)N)cc2)cc1"
Ans. > 500 µM

Qu. Requested field: MIC. Item: "NCC[C@H](O)C(=O)N[C@@H]1C[C@H](N)[C@@H](O[C@H]2O[C@H](CN)[C@@H](O)[C@H](O)[C@H]2O)[C@H](O)[C@H]1O[C@H]1O[C@H](CO)[C@@H](O)[C@H](N)[C@H]1O"
Ans. 3.9 to 15.6 µM

Qu. Requested field: MIC. Item: "Cl.N#Cc1ccc(N/N=C/c2ccc(-c3ccc(/C=N/NC(=N)N)cc3)cc2)cc1"
Ans. 31.3 µM

Attention now turns to another entry.
Qu. Requested field: MIC. Item: "C/C(=N\NC(=N)N)c1ccc2c(c1)Cc1cc(/C(C)=N/NC(=N)N)ccc1-2.Cl.Cl"
Ans. 7.8 µM

====

# System: Enterobacter cloacae
# experiment: Antibacterial activity against Enterobacter cloacae ATCC 13047
# Type: functional
# conditionParameters: subsp. cloacae ATCC 13047
The reader will find reported MIC values listed item by item below.
Report the figure in µM without appending any unit label.

Observe how each entry below is paired with its result.
Qu. Requested field: MIC. Item: "C/C(=N\NC(=N)N)c1ccc(Oc2ccc(/C(C)=N/NC(=N)N)cc2)cc1.Cl.Cl"
Ans. 250

Qu. Requested field: MIC. Item: "C/C(=N\NC(=N)N)c1ccc(-c2ccc(/C(C)=N/Nc3ccccc3Cl)cc2)cc1"
Ans. 500

Attention now turns to another entry.
Qu. Requested field: MIC. Item: "Cl.N#Cc1ccc(N/N=C/c2ccc(-c3ccc(/C=N/NC(=N)N)cc3)cc2)cc1"
Ans. 500
